- systemUnderTest: T1, human VEGFR2 on cells (PAE/KDR cells, HUVEC) (human, UniProt P35968 20-1356)
- T1 construct: whole, on cells
- T1 sequence (P35968 20-1356): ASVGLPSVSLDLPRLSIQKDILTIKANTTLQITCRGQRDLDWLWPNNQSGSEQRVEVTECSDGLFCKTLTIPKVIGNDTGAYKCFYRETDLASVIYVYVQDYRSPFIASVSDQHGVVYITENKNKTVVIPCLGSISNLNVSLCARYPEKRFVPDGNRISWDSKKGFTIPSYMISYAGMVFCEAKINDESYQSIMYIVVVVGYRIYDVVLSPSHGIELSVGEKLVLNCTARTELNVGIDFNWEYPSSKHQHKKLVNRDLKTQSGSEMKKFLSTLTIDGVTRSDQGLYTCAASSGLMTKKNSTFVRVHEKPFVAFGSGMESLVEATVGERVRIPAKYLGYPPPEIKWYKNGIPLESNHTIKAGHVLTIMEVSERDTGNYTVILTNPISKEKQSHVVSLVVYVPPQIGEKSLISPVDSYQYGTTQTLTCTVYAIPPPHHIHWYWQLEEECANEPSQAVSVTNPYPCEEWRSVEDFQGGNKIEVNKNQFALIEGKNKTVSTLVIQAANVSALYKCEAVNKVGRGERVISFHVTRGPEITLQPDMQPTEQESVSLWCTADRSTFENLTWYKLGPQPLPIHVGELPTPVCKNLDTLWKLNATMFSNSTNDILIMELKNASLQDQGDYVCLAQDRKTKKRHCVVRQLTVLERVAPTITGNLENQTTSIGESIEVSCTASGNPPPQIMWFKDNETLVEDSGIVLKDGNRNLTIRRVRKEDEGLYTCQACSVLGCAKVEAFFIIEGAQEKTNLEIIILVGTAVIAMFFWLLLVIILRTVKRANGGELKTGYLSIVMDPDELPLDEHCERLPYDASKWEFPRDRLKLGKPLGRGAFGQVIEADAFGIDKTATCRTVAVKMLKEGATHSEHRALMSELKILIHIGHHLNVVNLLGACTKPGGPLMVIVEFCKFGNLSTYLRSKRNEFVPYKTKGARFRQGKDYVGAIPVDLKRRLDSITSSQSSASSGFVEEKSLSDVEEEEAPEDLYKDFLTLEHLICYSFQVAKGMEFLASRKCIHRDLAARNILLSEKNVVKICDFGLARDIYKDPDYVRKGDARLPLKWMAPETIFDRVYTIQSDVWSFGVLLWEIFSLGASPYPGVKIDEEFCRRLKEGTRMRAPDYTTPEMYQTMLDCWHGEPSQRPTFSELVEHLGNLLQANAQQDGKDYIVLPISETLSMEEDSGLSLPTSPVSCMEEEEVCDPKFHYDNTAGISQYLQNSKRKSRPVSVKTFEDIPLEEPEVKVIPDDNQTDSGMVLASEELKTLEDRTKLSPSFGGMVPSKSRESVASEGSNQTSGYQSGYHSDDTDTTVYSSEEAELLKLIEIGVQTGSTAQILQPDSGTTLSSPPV
- methodDescription: flow cytometry titration on HUVEC, anti-FLAG detection
readoutLabel: pKd
Schema: pKd number; meaning minus log10 of the concentration expressed in molar units.

Task: Output measured pKd for this item: scVEGF-mE (designed binder, Soluble protein with C-terminal hexahistidine tag, with or without N-terminal FLAG tag (tags not included in the parts); also called scVEGFmut-E) EVVKAMDVYQRSYCHPIETLVDILQEYPDEIGYIFKPSCVPLMRCGGCCNGAGLECVPTEESNITMQIMRIKPHRGQHIGEMSFLQHNKCECRPKKDGSTSGSGKSSEGKGEVVRFMDVYQRSYCHPIETLVDIFQEYPNEIEYAFKPSCVPLMRCGGCCNNEGLECVPTEESNITMQIMRAKPHQGQHIGEMSFLQHNKCECRPKKD
Result: 7.28

Ref: patent US20160039895A1
